Data origin, for the record: patent US20160194402A1

biological target: T1, recombinant hCD70 (CD70(h)-muCD8 fusion Protein, Ancell, cat. no. ANC-537-030) (mouse; human, UniProt P01731 28-196; P32970 39-193, biotin (position not stated; detected with Streptavidin-HRP, bound to streptavidin beads)); assay: cell-based competition ELISA: biotinylated CD70(h)-muCD8 (0.5 ug/ml) binding to CHO-K1.hCD27 cells, Streptavidin-HRP
T1 construct: Bought fusion protein; also called CD8-hCD70; biotin-hCD8-hCD70 recombinant protein
T1 sequence (P01731 other isoform, or with tags, fused parts or gaps): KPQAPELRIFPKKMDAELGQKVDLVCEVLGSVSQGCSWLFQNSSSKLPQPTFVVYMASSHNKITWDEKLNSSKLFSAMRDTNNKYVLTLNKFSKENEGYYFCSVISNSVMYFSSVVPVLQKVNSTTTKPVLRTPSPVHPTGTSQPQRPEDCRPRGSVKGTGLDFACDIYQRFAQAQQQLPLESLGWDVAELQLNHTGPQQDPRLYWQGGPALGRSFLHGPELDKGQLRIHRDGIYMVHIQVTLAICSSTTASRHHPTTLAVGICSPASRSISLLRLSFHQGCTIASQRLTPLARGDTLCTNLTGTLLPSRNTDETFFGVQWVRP
READOUT_KIND: pIC50
Reminder that pIC50 means the negative base-10 logarithm of the concentration expressed in mol/L.

hCD70.34 (antibody, IgG1, V domains shown, Mouse monoclonal purified from hybridoma supernatant) VH: QVQLKESGPGLVAPSQSLSITCTVSGFSLTSYGVSWVRQPPGKGLEWLGVIWGDGTTNYHSALISRLSISKDNSKSQVFLKLNSLQIDDTATYYCAKPGDYYGSSYWYFDVWGAGTTVTVSS VL: DVVLTQTPLSLPVNIGDQASISCKSTKSLLNSDGFTYLDWYLQKPGQSPQLLIYFVSNRFSGVPDRFSGSGSGTDFTLKISRVEADDLGVYYCFQSNYLPYTFGGGTKLEIK | 6.96

Query: # query: pIC50 of entry hCD70.32 (antibody, IgG1, V domains shown, Mouse monoclonal purified from hybridoma supernatant) VH: QVQLQQSGDDLVKPGASVKLSCKASGYTFTSYWINWIKQRPGQGLEWIGRIAPGSGSTYYSKIFKGKATLTVDTSSSTAYIQLSSLSSEDSAVYFCSRGDYGDYWGQGTTLTVSS VL: DIVMTQSHKFMSTSVGDRVSITCKASQDVGTAVAWYQQKPGESPKLLIYWASTRHTGVPDRLTGSGSGTDFTLTISNVHSEDLADYFCQQYSGYPLTFGDGTKLEL
Response: 7.12
